Each item that follows carries a reported koff.
system-tested: T1, human VEGF (human, UniProt P15692-4 27-191)
T1 construct: Bought recombinant protein; also called hVEGF; human VEGF-A
T1 sequence (P15692 other isoform, or with tags, fused parts or gaps limits assumed): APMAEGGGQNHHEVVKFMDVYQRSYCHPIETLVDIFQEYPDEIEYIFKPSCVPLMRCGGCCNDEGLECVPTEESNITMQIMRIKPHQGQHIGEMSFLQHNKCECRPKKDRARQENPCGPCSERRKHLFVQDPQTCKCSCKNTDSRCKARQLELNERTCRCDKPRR
method-description: SPR (BIAcore X100), VEGF on CM5 chip, IgG injected, 1:1 Langmuir
Source text: Meanwhile, to measure the affinity, human VEGF and mouse VEGF were coupled to carboxymethylated dextran biosensor chips (CM5, GE) according to the manufacturer's instructions. The association and dissociation rates were expressed by the association and dissociation sensorgram, and calculated using a simple 1:1 Langmuir binding model (BIAcore X100 evaluation software, ver. 2.0).

# binder, value-operator, koff [s⁻¹]
rows = [
    ("HF2-1 (antibody, V domains shown, also called HF-1) VH: EVQLVESGGGLVQPGGSLRLSCAASNFVFRSHGMQWVRQAPGKGLEYVAGISSDGSWTGYGAAVEGRFTISRDDSKNTAYLQMNSLRAEDTAVYYCARDFSTGYGADSIDAWGQGTLVTVSS VL: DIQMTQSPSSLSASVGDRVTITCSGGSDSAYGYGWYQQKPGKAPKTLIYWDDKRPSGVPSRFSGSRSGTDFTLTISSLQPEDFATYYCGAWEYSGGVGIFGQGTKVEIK", "<", "1e-06"),
    ("HF2-5 (antibody, V domains shown, also called HF-5) VH: EVQLVESGGGLVQPGGSLRLSCAASGFMIRSHGMQWVRQAPGKGLEYVAGISSDGSWARHSAAVEGRFTISRDDSKNTAYLQMNSLRAEDTAVYYCARDFSTGYGADSIDAWGQGTLVTVSS VL: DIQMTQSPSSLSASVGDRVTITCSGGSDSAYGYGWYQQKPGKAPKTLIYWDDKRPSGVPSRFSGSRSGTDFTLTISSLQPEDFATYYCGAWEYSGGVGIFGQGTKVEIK", "=", "2.6e-05"),
    ("HF2-8 (antibody, V domains shown, also called HF-8) VH: EVQLVESGGGLVQPGGSLRLSCAASGFHIRSHGMQWVRQAPGKGLEYVAGISSDGSWLKLSAAVEGRFTISRDDSKNTAYLQMNSLRAEDTAVYYCARDFSTGYGADSIDAWGQGTLVTVSS VL: DIQMTQSPSSLSASVGDRVTITCSGGSTYSLGYGWYQQKPGKAPKTLIYWDDKRPSGVPSRFSGSRSGTDFTLTISSLQPEDFATYYCGAWEYSGGVGIFGQGTKVEIK", "=", "5.7e-05"),
]
